Tested on: Pseudomonas fluorescens HPPD polypeptide (wild-type and mutants)
Experiment: Coupled HPPD activity assay: turnover and residual turnover in crude HPPD polypeptide extracts with and without Cmpd. 1
Assay type: biochemical
Details: presence of 100 μM Cmpd. 1; changes in absorbance (OD) at 320 nm in the coupled assay, 30 min

>  <MOLECULE>
SEQ ID NO:66 (protein, mutant HPPD polypeptide) MADLYENPMGLMGFEFIEFASPTPGTLEPIFEIMGFTKVATHRSKNVHLYRQGEINLILNNEPNSIASYFAAEHGPSVCGMAFRVKDSQKAYNRALELGAQPIHIDTGPMELNLPAIKGIGGAPLYLIDRFGEGSSIYDIDFVYLEGVERNPVGAGLKVIDHLTHNVYRGRMVYWANFYEKLFNFREARYFDIKGEYTGLTSKAMSAPDGMIRIPLNEESSKGAGQIEEFLMQFNGEGIQHVAFLTDDLVKTWDALKKIGMRFLTAPGDEYYEMLEGRLPDHGEPVDQLQARGILLDGSSVEGDKRLLLQIFSEQLMGPVFFEFIQRKGDDGFGPDSFKVLFEQIERDQVRRGVLTAD

>  <Residual turnover>
0.122

$$$$
